Recorded values, source patent US20230151110A1.

- System Tested: T1, CD47 on the surface of cynomolgus monkey B cells (cynomolgus monkey, UniProt A0A5F8AK49 19-323 (rhesus entry))
- T1 construct: whole, on cells; also called cynomolgus monkey CD47
- Test Details: FACS on cynomolgus monkey B cells, antibody 66.7 nM
I'd be grateful if you could share measured Max MFI compared with Ch-125G4m-m35 value, % for these entries.
Numeric only. Scale: %

Dear colleague, I am looking for the recorded Max MFI compared with Ch-125G4m-m35 value, % of the following binder: Hu-125G4A4m-49 (antibody, V domains shown, Humanized antibody, IgG4 S228P (IgG4P) subtype) VH: QVQLVQSGAEVKKPGSSVKVSCKASGYTFTSYYMHWVRQAPGQGLEWMGYIDPANDYSDYNQNFKDRATLTADKSTRTTYMELTSLRSEDTAVYYCARLGYGQSSPFDYWGQGTTVTVSS VL: DIQMTQSPSSLSASVGDRVTITCKASQDIHNYLSWFQQKPGKAPKSLIYRAKRLVEGVPSRFSGSGSGQDYTLTISSLQPEDFATYYCLQYDELYTFGQGTRLEIK
90

Please report the recorded Max MFI compared with Ch-125G4m-m35 value, % for Hu-125G4A4m-43 (antibody, V domains shown, Humanized antibody, IgG4 S228P (IgG4P) subtype) VH: QVQLVQSGAEVKKPGSSVKVSCKASGYTFTSYYMHWVRQAPGQGLEWMGYIDPANDYSDYNQNFKDRVTITADKSTRTTYMELTSLRSEDTAVYYCARLGYGQSSPFDYWGQGTTVTVSS VL: DIQMTQSPSSLSASVGDRVTITCKASQDIHNYLSWFQQKPGKAPKSLIYRAKRLVEGVPSRFSGSGSGQDYTLTISSLQPEDFATYYCLQYDELYTFGQGTRLEIK .
72

Given the entry control antibody Hu5F9 (antibody, V domains shown) VH: QVQLVQSGAEVKKPGASVKVSCKASGYTFTNYNMHWVRQAPGQRLEWMGTIYPGNDDTSYNQKFKDRVTITADTSASTAYMELSSLRSEDTAVYYCARGGYRAMDYWGQGTLVTVSS VL: DIVMTQSPLSLPVTPGEPASISCRSSQSIVYSNGNTYLGWYLQKPGQSPQLLIYKVSNRFSGVPDRFSGSGSGTDFTLKISRVEAEDVGVYYCFQGSHVPYTFGQGTKLEIK , report its measured Max MFI compared with Ch-125G4m-m35 value, %.
90

Which Max MFI compared with Ch-125G4m-m35 value, % is listed for Hu-125G4A4m-50 (antibody, V domains shown, Humanized antibody, IgG4 S228P (IgG4P) subtype) VH: QVQLVQSGAEVKKPGSSVKVSCKASGYTFTSYYMHWVRQAPGQGLEWMGYIDPANDYSDYNQNFKDRATLTADKSTRTTYMELTSLRSEDTAVYYCARLGYGQSSPFDYWGQGTTVTVSS VL: DIKMTQSPSSLSASVGDRVTITCKASQDIHNYLSWFQQKPGKAPKTLIYRAKRLVEGVPLRFSGSGSGQDYTLTISSLQPEDFATYFCLQYDELYTFGQGTRLEIK ?
106

// lookup Max MFI compared with Ch-125G4m-m35 value, % for humanized antibody HMA02h14-48 (antibody, V domains shown, Humanized antibody, IgG4 S228P (IgG4P) subtype; also called Hu-125G4A4m-48; Hu-125G4A4-48) VH: QVQLVQSGAEVKKPGSSVKVSCKASGYTFTSYYMHWVRQAPGQGLEWMGYIDPANDYSDYNQNFKDRATLTADKSTRTTYMELTSLRSEDTAVYYCARLGYGQSSPFDYWGQGTTVTVSS VL: DIQMTQSPSSLSASVGDRVTITCKASQDIHNYLSWFQQKPGKAPKSLIYRAKRLVEGVPSRFSGSGSGTDYTLTISSLQPEDFATYYCLQYDELYTFGQGTRLEIK
92
